The measurements presented in this section are drawn from patent US10774109B2.

- experiment.summary: Crystal thickness by scanning electron microscope
- Type: physicochemical
- condition.summary: α-type crystal
recorded.metric: Average crystal thickness T (μm)
I only need the number, in μm, no unit after it.

Some compounds with known Average crystal thickness T results, for comparison:
{"compound": "N[C@@H](CCC(=O)N[C@@H](CS)C(=O)NCC(=O)O)C(=O)O [Example 2, reduced glutathione]", "recorded.metric": "Average crystal thickness T", "measured": 16.7}
{"compound": "N[C@@H](CCC(=O)N[C@@H](CS)C(=O)NCC(=O)O)C(=O)O [Example 1, reduced glutathione]", "recorded.metric": "Average crystal thickness T", "measured": 17.0}
{"compound": "N[C@@H](CCC(=O)N[C@@H](CS)C(=O)NCC(=O)O)C(=O)O [Comparative Example, reduced glutathione]", "recorded.metric": "Average crystal thickness T", "measured": 5.5}
{"compound": "N[C@@H](CCC(=O)N[C@@H](CS)C(=O)NCC(=O)O)C(=O)O [Example 3, reduced glutathione]", "recorded.metric": "Average crystal thickness T", "measured": 16.7}

// next entry
Look up and state reported Average crystal thickness T for N[C@@H](CCC(=O)N[C@@H](CS)C(=O)NCC(=O)O)C(=O)O [Commercially available product A, reduced glutathione] 1.9
